# system-tested: Torsin-1A (Homo sapiens)
# protocol-notes: TOR1A wild-type binding on microarray – cell lysate, small-molecule microarray, lysate, 635/667 nm, primary screen (AID 1149)
# details: COS7 hTOR1A-WT lysate, 635 nm fluorescence, higher = more signal
Label Satisfied when composite z-score is at or above 0.1; otherwise label Not satisfied.

Solved cases (5 shown):
| compound | system-tested | class-label |
| --- | --- | --- |
| CC[C@@H]1C=C(C(=O)O)[C@H](c2ccc(C(C)C)cc2)N1S(=O)(=O)c1ccc(C)cc1 | Torsin-1A (Homo sapiens) | Satisfied |
| O=C(N1CCCCC1)[C@]1(CCS(=O)(=O)c2ccccc2)N=C(c2ccc(OCCCO)cc2)O[C@@H]1c1ccccc1 | Torsin-1A (Homo sapiens) | Satisfied |
| Cc1ccc(S[C@]2(C(=O)NCc3ccccc3)CC(=O)N(Cc3cc(C(F)(F)F)cc(C(F)(F)F)c3)[C@@H]2c2ccc(CO)cc2)cc1 | Torsin-1A (Homo sapiens) | Not satisfied |
| [N-]=[N+]=NCc1ccccc1[C@H]1OC(c2ccc(OCCCO)cc2)=N[C@@]1(Cc1ccccc1)C(=O)NCC(O)CO (some centres not stated) | Torsin-1A (Homo sapiens) | Satisfied |
| CCCC[C@@H]1C[C@H]1[C@@H](NC(=O)c1ccccc1)c1ccc(-c2ccccc2)cc1 | Torsin-1A (Homo sapiens) | Not satisfied |

Given `COc1ccccc1CN1C(=O)c2ccccc2[C@](Cc2ccccc2I)(C(=O)NCc2ccccc2)[C@@H]1c1ccc(CO)cc1` , state whether its composite z-score is at least 0.1.
Satisfied

Given C[C@H]1C2[C@H](Cc3ccccc3)NC(=O)[C@]23C(=O)N[C@H](Cc2ccccc2)C(=O)N[C@H](Cc2ccccc2)C(=O)NC/C=C/CCC/C=C/C3[C@@H]2O[C@]12C (some centres not stated) , state whether its composite z-score is at least 0.1.
Satisfied

====

# system-tested: Homeobox protein Hox-A13 (Mus musculus) (UniProt Q62424)
# Sequence (Q62424 whole entry, looked up): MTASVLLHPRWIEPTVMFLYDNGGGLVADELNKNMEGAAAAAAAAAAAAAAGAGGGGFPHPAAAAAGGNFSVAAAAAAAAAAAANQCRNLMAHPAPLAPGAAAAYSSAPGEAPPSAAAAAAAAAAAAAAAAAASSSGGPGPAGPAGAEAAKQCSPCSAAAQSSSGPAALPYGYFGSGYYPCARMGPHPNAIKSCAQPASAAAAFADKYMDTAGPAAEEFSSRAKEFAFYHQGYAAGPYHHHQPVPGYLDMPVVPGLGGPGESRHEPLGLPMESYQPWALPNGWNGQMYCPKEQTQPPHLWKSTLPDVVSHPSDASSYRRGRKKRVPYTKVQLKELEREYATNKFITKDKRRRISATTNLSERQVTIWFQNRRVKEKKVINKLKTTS
# protocol-notes: disruptors of Hoxa13 oligonucleotide interaction – biochemical, fluorescence polarization, labeled oligonucleotide, primary screen (AID 1185)
# details: Hoxa13:DNA binding, 15 min, called active from +8 up or from −8 down
Calls of active or inactive are those of the source.
# output must be one of active, inactive

Solved cases (5 shown):
| compound | class-label |
| --- | --- |
| CCCCCCCCCCC(O)C1C=CC2C(=O)N(c3ccccc3)C(=O)C2N1Nc1ccc([N+](=O)[O-])cc1 (stereo unspecified) | inactive |
| O=C1OCCC/C=C\[C@H]2OC34C=CCN(CCN5CCOCC5)C(=O)[C@H]3N(CCO)C(=O)[C@@H]4C12 (stereo partly specified) | inactive |
| O=C1c2ccccc2[C@](Cc2ccccc2I)(C(=O)O)[C@H](c2ccc(CO)cc2)N1Cc1ccccc1C(F)(F)F | inactive |
| C=CCNC(=O)[C@H]1[C@@H]2C(=O)O[C@@H](c3ccccc3)[C@@H](c3ccccc3)N2[C@@H](c2ccc(OCCO)cc2)[C@]12C(=O)N(C(=O)OCCOC)c1ccc(C#CC3(O)CCCCCC3)cc12 | inactive |
| [N-]=[N+]=NCc1ccccc1C[C@]1(C(=O)N2CCOCC2)N=C(c2ccc(OCCCO)cc2)O[C@H]1c1ccccc1 | inactive |

Query: recorded result category for `C=CC[C@@]1(C(N)=O)N=C(c2ccc(OCCCO)cc2)O[C@@H]1c1ccccc1N=[N+]=[N-]` in this test
inactive

Query: recorded result category for O=C1C2C=CC(C(O)c3ccc(B(O)O)cc3)N(Nc3ccc([N+](=O)[O-])cc3)C2C(=O)N1c1ccccc1 (stereo unspecified) in this test
inactive

Query: recorded result category for `CC(C)C(=C=CC[C@H](O)c1ccccc1OCCO)CCO` in this test
inactive

Query: recorded result category for `NC(=O)[C@]1(Cc2ccccc2)N=C(c2ccc(OCCCO)cc2)O[C@@H]1c1ccccc1` in this test
inactive

Query: recorded result category for `C[N+](C)(C)CCCCNC(=O)[C@H]1C[C@H]2C(=O)N3CCC[C@H]3C(=O)N2[C@H]1c1ccc(O)cc1` in this test
inactive

Query: recorded result category for CC(c1ccccc1)C(O)C1C=CC2C(=O)N(Cc3ccccc3)C(=O)C2N1n1cnnc1 (stereo unspecified) in this test
inactive

Query: recorded result category for `C=C(COC)/C(=C/C[C@H](OC(C)=O)c1ccccc1OCCO)c1cnc2ccccc2c1` in this test
inactive

Query: recorded result category for `CC(=O)NCCCC[C@@H]1NC(=O)[C@@H]2C[C@H](C(=O)NCc3ccc(F)cc3)[C@H](c3ccc(O)cc3)N2C1=O` in this test
inactive

Query: recorded result category for `C=C(/C(=C/C[C@@H](OC(=O)c1ccncc1)c1ccc(CO)o1)c1cc(C(=O)OC)ccc1OC)C(C)C` in this test
inactive

Query: recorded result category for COCC1C2CC[C@H]3C(OCc4ccc(F)cc4C(F)(F)F)OC[C@]4(C)[C@H]3C2=C(CN4C(=O)OC(C)(C)C)[C@H](C)C1COC (stereo partly specified) in this test
inactive

Query: recorded result category for [N-]=[N+]=NCc1ccccc1C[C@]1(C(=O)NCC(O)CO)COC(c2ccc(OCCCO)cc2)=N1 (stereo partly specified) in this test
inactive

Query: recorded result category for `C[n+]1ccc2ccc(O)cc2c1` in this test
active

Query: recorded result category for `CN(C)CCCCCCNC(=O)[C@@H]1C[C@@H]2C(=O)NCC(=O)N2[C@@H]1c1cccc(OCCO)c1` in this test
inactive

Query: recorded result category for O=C1OCCC=C[C@H]2OC34C=CCN(CCN5CCOCC5)C(=O)[C@H]3N(CCO)C(=O)[C@@H]4C12 (stereo partly specified) in this test
inactive

Query: recorded result category for O=C1NC(=O)C2C1C=CC(C(O)c1cccs1)N2Nc1ccccn1 (stereo unspecified) in this test
inactive

Query: recorded result category for `C=C(C(=O)CC[C@H](OC(=O)c1cccnc1)c1ccccc1OCCO)C(C)C` in this test
inactive

Query: recorded result category for `COc1ccc([Si](C)(C)[C@H]2[C@H](CCO)O[C@@]3(C(=O)N(Cc4cccc(N5C(=O)c6cccc7cccc5c67)c4)c4ccccc43)[C@@H]2C)cc1` in this test
inactive

Query: recorded result category for `CCOC(=O)C=Cc1cccc(OC)c1O` in this test
inactive

Query: recorded result category for `COC(=O)[C@@]1(Cc2ccc(OC)cc2)[C@H]2c3cc(C(=O)N4CCCC4)n(CCN4CCOCC4)c3C[C@H]2CN1C(=O)c1ccccc1` in this test
inactive

Query: recorded result category for `COc1ccccc1CN1C(=O)c2ccccc2[C@](Cc2ccccc2I)(C(=O)NCc2ccccc2)[C@@H]1c1ccc(CO)cc1` in this test
inactive

Query: recorded result category for `C=C(C(=O)CC[C@@H](OC(=O)c1cccnc1)c1ccc(CO)o1)C(C)C` in this test
inactive

====

# protocol-notes: probe aDKK1 binding to arrayed compounds – biochemical, biotinylated probe, 635/667 nm fluorescence, primary screen (AID 1099);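 further: score merges 667nm spot fluorescence with signal to noise across triplicate slides; reference of the scale not given here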
# details: small-molecule microarray, higher = more signal
Below, each of the molecules is paired with its reported composite z-score value.
Write the number on its own, no unit after it.

Below are worked cases with known answers.
| molecule | composite z-score |
| --- | --- |
| C=CCN1C(=O)[C@@]2(O[C@@H](CCO)[C@H]([Si](C)(C)c3ccc(OC)cc3)[C@H]2C)c2cc(N3C(=O)COc4ccccc43)ccc21 | -0.447 |
| C=CCNC(=O)[C@H]1[C@@H]2C(=O)O[C@@H](c3ccccc3)[C@@H](c3ccccc3)N2[C@@H](c2ccc(OCCO)cc2)[C@]12C(=O)N(C(=O)OCCOC)c1ccc(C#CC3(O)CCCCCC3)cc12 | 0.456 |
| C=C[C@@H](C)[C@@H](OC(=O)Nc1ccc(OC)cc1)c1ccc(O)c2ccccc12 | -0.241 |
| C=CCOC(=O)[C@H]1[C@@H]2C(=O)O[C@@H](c3ccccc3)[C@@H](c3ccccc3)N2[C@@H](c2ccc(OCCOC(=O)[C@@H]3C[C@@H]4C(=O)NCC(=O)N4[C@@H]3c3ccc(O)cc3)cc2)[C@]12C(=O)Nc1ccc(I)cc12 | -0.106 |
| Cc1c(NC(=O)/C(C#N)=C/C=C/c2ccccc2)c(=O)n(-c2ccccc2)n1C | -0.0814 |

Supply reported composite z-score belonging to this molecule: CC(C)C(O)C1C=CC2C(=O)N(C)C(=O)C2N1N1CCCCC1 (configuration not stated)
0.184

Supply reported composite z-score belonging to this molecule: `COc1ccc([Si](C)(C)[C@@H]2[C@@H](CCn3cc([C@H](O)c4ccccc4)nn3)O[C@]3(C(=O)N(C)c4ccccc43)[C@H]2C)cc1`
-0.202

====

Below, each of the compounds is paired with its reported composite z-score value.
# system-tested: E3 ubiquitin-protein ligase XIAP (Homo sapiens) (UniProt P98170)
# Sequence (P98170 whole entry, looked up): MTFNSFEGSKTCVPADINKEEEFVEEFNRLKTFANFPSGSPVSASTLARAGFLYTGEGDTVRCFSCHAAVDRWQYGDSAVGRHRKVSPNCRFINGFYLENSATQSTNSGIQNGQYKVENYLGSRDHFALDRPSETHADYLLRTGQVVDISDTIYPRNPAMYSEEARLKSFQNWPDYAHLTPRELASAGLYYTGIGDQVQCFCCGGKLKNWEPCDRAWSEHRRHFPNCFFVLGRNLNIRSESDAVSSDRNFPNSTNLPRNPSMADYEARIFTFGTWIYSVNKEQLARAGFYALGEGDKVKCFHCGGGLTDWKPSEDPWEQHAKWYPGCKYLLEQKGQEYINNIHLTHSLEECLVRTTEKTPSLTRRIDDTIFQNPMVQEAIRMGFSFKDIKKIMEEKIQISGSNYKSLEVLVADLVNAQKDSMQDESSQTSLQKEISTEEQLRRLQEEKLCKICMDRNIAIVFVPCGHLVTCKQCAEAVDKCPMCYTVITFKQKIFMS
# protocol-notes: small molecules binding XIAP protein – biophysical, small-molecule microarray, fluorescence 635 nm, primary screen (AID 1181);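 further: score merges 667 nm emission and signal to noise over triplicate slides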
# details: higher = more signal

Supply reported composite z-score belonging to this compound: `O=c1cccc(-c2cccc3ccccc23)o1`
0.126

Reference source for all entries: PubChem BioAssay
